System: MCF-7 (breast adenocarcinoma)
ASSAY PROCEDURE: SRB cytotoxicity assay, MCF-7
Assay type: cell-based, human
EXPERIMENTAL SETUP: SI = EC50 (NIH 3T3)/EC50 (MCF-7)
Structures can show the parent of a compound that is named as a salt.
Overview of reported Selectivity index SI MCF-7 across a group of compounds:

# COMPOUND, Selectivity index SI MCF-7
data = [
    ("CC(C)(C)OC(=O)CN1CCNCCN(CC(=O)OC(C)(C)C)CCN(CC(=O)OC(C)(C)C)CC1", 1.53),
    ("C[C@H]1[C@H](C)CC[C@]2(C(=O)O)CC[C@]3(C)C(=CC[C@@H]4[C@@]5(C)CC[C@H](O)C(C)(C)[C@@H]5CC[C@]43C)[C@H]12", 1.03),
    ("O=C(CN1CCNCCN(CC(=O)OCc2ccccc2)CCN(CC(=O)OCc2ccccc2)CC1)OCc1ccccc1", 1.10),
    ("CC(=O)O[C@H]1CC[C@@]2(C)C(CC[C@]3(C)C2CC=C2C4[C@@H](C)[C@H](C)CC[C@]4(C(=O)N4CCN(C(=O)CN5CCN(CC(=O)OC(C)(C)C)CCN(CC(=O)OC(C)(C)C)CCN(CC(=O)OC(C)(C)C)CC5)CC4)CC[C@]23C)C1(C)C (some centres unmarked)", 1.05),
    ("COc1cccc2c1C(=O)c1c(O)c3c(c(O)c1C2=O)C[C@@](O)(C(=O)CO)C[C@@H]3O[C@H]1C[C@H](N)[C@H](O)[C@H](C)O1 [DRC, doxorubicin hydrochloride, reference compound]", 0.05),
]
